# System: HSC2
# assay details: relative IC50 (inflection point of fitted dose-response curve, CellTox-Green cytotoxicity, 72 h; top asymptote may be below 50%); higher = less potent

[
  {
    "compound": "Nc1ncn([C@H]2C[C@H](O)[C@@H](CO)O2)c(=O)n1",
    "relative IC50": "> 10 µM"
  },
  {
    "compound": "CN1CC[C@H](c2c(O)cc(O)c3c(=O)cc(-c4ccccc4Cl)oc23)[C@H](O)C1",
    "relative IC50": "0.304 µM"
  },
  {
    "compound": "O=C(Nc1ccncc1)C(=O)c1cn(Cc2ccc(Cl)cc2)c2ccccc12",
    "relative IC50": "1.58 µM"
  },
  {
    "compound": "C[C@@H](Oc1cc(-c2cnn(C3CCNCC3)c2)cnc1N)c1c(Cl)ccc(F)c1Cl",
    "relative IC50": "> 1 µM"
  },
  {
    "compound": "S=P(N1CC1)(N1CC1)N1CC1",
    "relative IC50": "> 50 µM"
  },
  {
    "compound": "O=c1[nH]cc(F)c(=O)[nH]1",
    "relative IC50": "> 10 µM"
  },
  {
    "compound": "COc1ncc(-c2ccc3nccc(-c4ccnnc4)c3c2)cc1NS(=O)(=O)c1ccc(F)cc1F",
    "relative IC50": "> 1 µM"
  },
  {
    "compound": "Nc1nc(NC2CC2)cc(-c2cccc(Cl)c2Cl)n1",
    "relative IC50": "3.82 µM"
  },
  {
    "compound": "Nc1ncnc2c1nc(Cl)n2[C@@H]1O[C@H](CO)[C@@H](O)[C@H]1O",
    "relative IC50": "> 50 µM"
  },
  {
    "compound": "c1ccc2c(CCNc3ccc(Nc4ccncc4)cc3)c[nH]c2c1",
    "relative IC50": "> 10 µM"
  },
  {
    "compound": "CC(C)Cn1cnc2c(N)nc3ccccc3c21",
    "relative IC50": "> 2.5 µM"
  },
  {
    "compound": "C=C1C[C@@H]2[C@H](CC[C@]3(C)C(=O)CC[C@@H]23)[C@@]2(C)C=CC(=O)C=C12",
    "relative IC50": "> 10 µM"
  },
  {
    "compound": "COc1ccc(S(=O)(=O)Nc2cccnc2Nc2ccc(O)cc2)cc1",
    "relative IC50": "0.304 µM"
  },
  {
    "compound": "CS(=O)(=O)OCCCCOS(C)(=O)=O",
    "relative IC50": "> 100 µM"
  },
  {
    "compound": "CCNC(=O)CCC/C=C\\C[C@@H]1[C@@H](/C=C/[C@@H](O)CCc2ccccc2)[C@H](O)C[C@@H]1O",
    "relative IC50": "> 5.5 µM"
  },
  {
    "compound": "COc1cc2/c(=N/c3ccc(Br)cc3F)nc[nH]c2cc1OCC1CCN(C)CC1",
    "relative IC50": "> 1 µM"
  },
  {
    "compound": "C/C(=C\\c1csc(C)n1)[C@@H]1C[C@@H]2O[C@]2(C)CCC[C@H](C)[C@H](O)[C@@H](C)C(=O)C(C)(C)[C@@H](O)CC(=O)O1",
    "relative IC50": "0.00917 µM"
  },
  {
    "compound": "Nc1ccccc1NC(=O)c1ccc(CNc2nccc(-c3cccnc3)n2)cc1",
    "relative IC50": "2.71 µM"
  },
  {
    "compound": "CC(C)(C)c1cnc(CSc2cnc(NC(=O)C3CCNCC3)s2)o1",
    "relative IC50": "0.00674 µM"
  },
  {
    "compound": "Cc1cc(C(C)Nc2ccccc2)c2nc(N3CCOCC3)cc(=O)n2c1 (stereo unspecified)",
    "relative IC50": "> 10 µM"
  },
  {
    "compound": "CC(=O)[C@]1(O)Cc2c(O)c3c(c(O)c2[C@@H](O[C@H]2C[C@H](N)[C@H](O)[C@H](C)O2)C1)C(=O)c1ccccc1C3=O",
    "relative IC50": "0.204 µM"
  },
  {
    "compound": "Cn1c(=O)c(F)c(Nc2ccc(I)cc2F)c2c(=O)n(C[C@@H](O)CO)cnc21",
    "relative IC50": "> 1 µM"
  },
  {
    "compound": "Cc1ccc(NC(=O)c2ccc(CN3CCN(C)CC3)cc2)cc1Nc1nccc(-c2cccnc2)n1",
    "relative IC50": "> 10 µM"
  },
  {
    "compound": "COc1cc(O)c2c(c1)/C=C/C[C@H](O)[C@H](O)C(=O)/C=C\\C[C@H](C)OC2=O",
    "relative IC50": "3.9 µM"
  },
  {
    "compound": "CO[C@@]12[C@H](COC(N)=O)C3=C(C(=O)C(C)=C(N)C3=O)N1C[C@@H]1N[C@@H]12",
    "relative IC50": "1.05 µM"
  },
  {
    "compound": "COCC1(CO)C(=O)C2CCN1CC2 (stereo unspecified)",
    "relative IC50": "> 10 µM"
  }
]

###

# Tested on: HS-PSS
# assay details: % inhibition of CellTiter-Glo viability at highest tested concentration (72 h), relative to DMSO and benzethonium chloride controls; higher = more inhibition
Kind request: treat 40% as inclusive, so % inhibition at 40% or higher is Condition met, anything lower is Condition not met.

[
  {
    "compound": "Cc1nc(N)sc1-c1ccnc(Nc2ccc(N3CCOCC3)cc2)n1 [CYC-116] (max concentration tested 10000 nM)",
    "assayed system": "HS-PSS",
    "label": "Condition met"
  },
  {
    "compound": "O=c1cc(N2CCOCC2)oc2c(-c3ccccc3)cccc12 (max concentration tested 100000 nM)",
    "assayed system": "HS-PSS",
    "label": "Condition met"
  },
  {
    "compound": "C#Cc1cccc(Nc2ncnc3cc(OC)c(OCCCCCCC(=O)NO)cc23)c1 [CUDC-101] (max concentration tested 10000 nM)",
    "assayed system": "HS-PSS",
    "label": "Condition met"
  },
  {
    "compound": "O=c1[nH]c(=O)n([C@H]2C[C@H](O)[C@@H](CO)O2)cc1F [Floxuridine] (max concentration tested 10000 nM)",
    "assayed system": "HS-PSS",
    "label": "Condition not met"
  },
  {
    "compound": "O=C(Nc1cc(Cl)cc2c1[nH]c1cnccc12)c1cccnc1 [PS-1145] (max concentration tested 25000 nM)",
    "assayed system": "HS-PSS",
    "label": "Condition not met"
  },
  {
    "compound": "CCc1cncnc1N1CCN(Cc2nc3ccc(C(F)(F)F)cc3[nH]2)CC1 (max concentration tested 10000 nM)",
    "assayed system": "HS-PSS",
    "label": "Condition met"
  }
]

###

# Test system: YST-1
# assay details: % inhibition of CellTiter-Glo viability at highest tested concentration (72 h), relative to DMSO and benzethonium chloride controls; higher = more inhibition
Kind request: treat 20% as inclusive, so % inhibition at 20% or higher is criterion met, anything lower is criterion not met.

[
  {
    "molecule": "Cn1cc(C[C@@H](N)C(=O)O)c2ccccc21 [1-methyl-D-tryptophan] (max concentration tested 5000 nM)",
    "label": "criterion not met"
  },
  {
    "molecule": "O=P1(N(CCCl)CCCl)NCCCO1 (stereo unspecified) [Cyclophosphamide] (max concentration tested 40000 nM)",
    "label": "criterion not met"
  },
  {
    "molecule": "O=C(Nc1ccc(-c2ccnc(Nc3ccc(N4CCOCC4)cc3)n2)cc1)[C@H]1CCCN1 [XL019] (max concentration tested 10000 nM)",
    "label": "criterion met"
  },
  {
    "molecule": "COc1cccc2c1c(O)c(C(=O)N(C)c1ccc(C(F)(F)F)cc1)c(=O)n2C [Tasquinimod] (max concentration tested 10000 nM)",
    "label": "criterion met"
  },
  {
    "molecule": "C=CC(=O)N1CCC[C@@H](n2nc(-c3ccc(Oc4ccccc4)cc3)c3c(N)ncnc32)C1 [Ibrutinib] (max concentration tested 1000 nM)",
    "label": "criterion not met"
  },
  {
    "molecule": "Cc1cc(-c2nc(-c3ccc(OC(F)(F)F)cc3)no2)nn1Cc1ccnc(N2CCN(C3CC3)CC2)c1 [BAY 87-2243] (max concentration tested 1000 nM)",
    "label": "criterion not met"
  }
]
